Form field: mean cell size (one value per entry).
- System: Saccharomyces cerevisiae BY4741 SeMeCo community
- assay-notes: mean cell size (pixel area) (pixels); higher = larger cells
- condition: 10 µM; 24 h; SM minimal medium
Structures can show the parent of a compound that is named as a salt.
Just the number, please, no unit attached.

So the reported mean cell size for CCOC(=O)Nc1ccc(NCc2ccc(F)cc2)cc1N [Retigabine 2HCl] , on Saccharomyces cerevisiae BY4741 SeMeCo community, turned out to be 12.5

So the reported mean cell size for O=c1cccc2n1C[C@@H]1CNC[C@H]2C1 , on Saccharomyces cerevisiae BY4741 SeMeCo community, turned out to be 12.6

So the reported mean cell size for C[N+]12CCC(CC1)C(OC(=O)C(O)(c1ccccc1)c1ccccc1)C2 (configuration not stated) [Clidinium Bromide] , on Saccharomyces cerevisiae BY4741 SeMeCo community, turned out to be 12.4

So the reported mean cell size for CN[C@@H]1[C@@H](O)[C@@H](O[C@@H]2[C@@H](O)[C@H](O[C@H]3O[C@H](CN)CC[C@H]3N)[C@@H](N)C[C@H]2N)OC[C@]1(C)O.CN[C@@H]1[C@@H](O)[C@@H](O[C@@H]2[C@@H](O)[C@H](O[C@H]3O[C@H]([C@@H](C)N)CC[C@H]3N)[C@@H](N)C[C@H]2N)OC[C@]1(C)O.CN[C@@H]1[C@@H](O)[C@@H](O[C@@H]2[C@@H](O)[C@H](O[C@H]3O[C@H]([C@@H](C)NC)CC[C@H]3N)[C@@H](N)C[C@H]2N)OC[C@]1(C)O [Gentamicin Sulfate] , on Saccharomyces cerevisiae BY4741 SeMeCo community, turned out to be 12.1

So the reported mean cell size for C=CC[C@]1(O)CC[C@H]2[C@@H]3CCC4=CC(=O)CCC4=C3C=C[C@@]21C , on Saccharomyces cerevisiae BY4741 SeMeCo community, turned out to be 12.6

So the reported mean cell size for CN1C(=O)COc2c(C(=O)NC3CN4CCC3CC4)cc(Cl)cc21 (configuration not stated) [Azasetron HCl] , on Saccharomyces cerevisiae BY4741 SeMeCo community, turned out to be 12

So the reported mean cell size for CCCN1C[C@H](CSC)C[C@@H]2c3cccc4[nH]cc(c34)C[C@H]21 [Pergolide Mesylate] , on Saccharomyces cerevisiae BY4741 SeMeCo community, turned out to be 12.4

---

Form field: z-score of subpopulation abundance (one value per entry).
- System: Saccharomyces cerevisiae BY4741 SeMeCo community
- assay-notes: z-score of subpopulation abundance vs DMSO median, subpopulation auxotrophic for UM; higher = larger share of this subpopulation than in DMSO controls
- condition: 10 µM; 24 h; SM minimal medium; subpopulation (auxotrophy): UM
Where a name gives a salt, the structure may show the parent alone.
Just the number, please, no unit attached.

Please review the entries below; each comes with its answer.
In [3]: df
Out[3]:
                                   molecule  observed_measurement
0                   COc1ccc2[nH]cc(CCN)c2c1                  1.16
1  CCN(C)C(=O)Oc1cccc([C@H](C)N(C)C)c1 [Rivastigmine Tartrate]                 -0.84
2  CCN1CC2(OC(=O)c3ccccc3NC(C)=O)CCC(OC)C34C1C(CC23)C1(O)CC(OC)C2CC4C1(O)C2OC (centres undefined)                  0.23
3  CN(C)C(=O)Oc1cccc([N+](C)(C)C)c1 [Neostigmine Bromide]                 -0.71

So the reported z-score of subpopulation abundance for CCCCCCCCCCCCCCCC[n+]1ccccc1 [Cetylpyridinium Chloride] , on Saccharomyces cerevisiae BY4741 SeMeCo community, turned out to be 3.46

So the reported z-score of subpopulation abundance for CC[C@@H](C(N)=O)N1CCCC1=O , on Saccharomyces cerevisiae BY4741 SeMeCo community, turned out to be -0.62

So the reported z-score of subpopulation abundance for CCOC(=O)Nc1ccc(NCc2ccc(F)cc2)cc1N , on Saccharomyces cerevisiae BY4741 SeMeCo community, turned out to be -1.09

So the reported z-score of subpopulation abundance for CC(C)N(CCC(C(N)=O)(c1ccccc1)c1ccccn1)C(C)C (centres undefined) [Disopyramide] , on Saccharomyces cerevisiae BY4741 SeMeCo community, turned out to be -0.64

So the reported z-score of subpopulation abundance for CCCN1C[C@H](CSC)C[C@@H]2c3cccc4[nH]cc(c34)C[C@H]21 [Pergolide Mesylate] , on Saccharomyces cerevisiae BY4741 SeMeCo community, turned out to be -0.77

So the reported z-score of subpopulation abundance for COc1cc2c(cc1OC)C1CC(=O)C(CC(C)C)CN1CC2 (centres undefined) , on Saccharomyces cerevisiae BY4741 SeMeCo community, turned out to be -0.68

So the reported z-score of subpopulation abundance for Cn1cc(C2=C(c3cn(C4CCN(Cc5ccccn5)CC4)c4ccccc34)C(=O)NC2=O)c2ccccc21 , on Saccharomyces cerevisiae BY4741 SeMeCo community, turned out to be 0.73

So the reported z-score of subpopulation abundance for C[N+](C)(C)CCCCCCCCCC[N+](C)(C)C [Decamethonium Bromide] , on Saccharomyces cerevisiae BY4741 SeMeCo community, turned out to be 0.35

So the reported z-score of subpopulation abundance for COc1ccc2c3c([nH]c2c1)C(C)=NCC3 , on Saccharomyces cerevisiae BY4741 SeMeCo community, turned out to be -9.37

So the reported z-score of subpopulation abundance for C=CN1CCCC1=O.II , on Saccharomyces cerevisiae BY4741 SeMeCo community, turned out to be 0.16

---

- Test system: Saccharomyces cerevisiae BY4741 SeMeCo community
- assay-notes: z-score of subpopulation abundance vs DMSO median, subpopulation auxotrophic for HM; higher = larger share of this subpopulation than in DMSO controls
- condition: 10 µM; 24 h; SM minimal medium; subpopulation (auxotrophy): HM
Where a name gives a salt, the structure may show the parent alone.
// Not met strictly below -0.03 in z-score of subpopulation abundance; Met otherwise

molecule	system-tested	answer-label
COc1cc2c(cc1OC)C1CC(=O)C(CC(C)C)CN1CC2 (centres undefined) [Tetrabenazine (Xenazine)]	Saccharomyces cerevisiae BY4741 SeMeCo community	Met
CCOC(=O)Nc1ccc(NCc2ccc(F)cc2)cc1N [Retigabine 2HCl]	Saccharomyces cerevisiae BY4741 SeMeCo community	Met
C=C[C@H]1CN2CC[C@H]1C[C@H]2[C@H](O)c1ccnc2ccccc12 [Cinchonidine]	Saccharomyces cerevisiae BY4741 SeMeCo community	Not met
C[N+]12CCC(CC1)C(OC(=O)C(O)(c1ccccc1)c1ccccc1)C2 (centres undefined) [Clidinium Bromide]	Saccharomyces cerevisiae BY4741 SeMeCo community	Not met
CCN(C)C(=O)Oc1cccc([C@H](C)N(C)C)c1 [Rivastigmine]	Saccharomyces cerevisiae BY4741 SeMeCo community	Not met
C=CC[C@]1(O)CC[C@H]2[C@@H]3CCC4=CC(=O)CCC4=C3C=C[C@@]21C [Altrenogest]	Saccharomyces cerevisiae BY4741 SeMeCo community	Not met
CC(=O)O[C@H]1C[C@@H]2CC[C@@H]3[C@H](CC[C@@]4(C)[C@H]3C[C@H]([N+]3(C)CCCCC3)[C@@H]4OC(C)=O)[C@@]2(C)C[C@@H]1[N+]1(C)CCCCC1 [Pancuronium dibromide]	Saccharomyces cerevisiae BY4741 SeMeCo community	Not met
CN1[C@@H]2C[C@@H](OC(=O)[C@H](CO)c3ccccc3)C[C@H]1[C@@H]1O[C@@H]12 [Scopolamine HBr]	Saccharomyces cerevisiae BY4741 SeMeCo community	Not met
CC(NC(C)(C)C)C(=O)c1cccc(Cl)c1 (centres undefined) [Amfebutamone (Bupropion) HCl]	Saccharomyces cerevisiae BY4741 SeMeCo community	Not met
CN1c2ccccc2C(NCCCCCCC(=O)O)c2ccc(Cl)cc2S1(=O)=O (centres undefined) [Tianeptine sodium]	Saccharomyces cerevisiae BY4741 SeMeCo community	Not met

**Q:** Does the reported z-score of subpopulation abundance for CC(C)=CCOc1c2occc2cc2ccc(=O)oc12 [Imperatorin] fall at or above the -0.03 mark?
**A:** Met

**Q:** Does the reported z-score of subpopulation abundance for Nc1ccncc1 [4-Aminopyridine] fall at or above the -0.03 mark?
**A:** Met

**Q:** Does the reported z-score of subpopulation abundance for COc1ccc(C(CN(C)C)C2(O)CCCCC2)cc1 (centres undefined) [Venlafaxine HCl] fall at or above the -0.03 mark?
**A:** Not met

---

- Tested on: Saccharomyces cerevisiae BY4741 SeMeCo community
- assay-notes: z-score of subpopulation abundance vs DMSO median, subpopulation auxotrophic for HLUM; higher = larger share of this subpopulation than in DMSO controls
- condition: 10 µM; 24 h; SM minimal medium; subpopulation (auxotrophy): HLUM
Where a name gives a salt, the structure may show the parent alone.
measured-parameter: z-score of subpopulation abundance
Just the number, please, no unit attached.

// field: z-score of subpopulation abundance; key: Cc1cc(O)ccc1Cl ; value = -0.16

// field: z-score of subpopulation abundance; key: C[C@H]1O[C@H](O[C@H]2[C@H](O)[C@@H](O)[C@@H](O)[C@H](O)[C@@H]2O)[C@@H](N)C[C@@H]1NC(=N)C(=O)O [Kasugamycin hydrochloride] ; value = -0.04

// field: z-score of subpopulation abundance; key: O=C(O[C@H]1C[N+]2(CCCOc3ccccc3)CCC1CC2)C(O)(c1cccs1)c1cccs1 [Aclidinium Bromide] ; value = -0.18

// field: z-score of subpopulation abundance; key: NCC(O)c1ccc(O)cc1 (racemic) [(+,-)-Octopamine HCl] ; value = -0.38
